Reference for the values: patent US10662218B2

assay: Compound solubility in PBS (pH 7.4), LC-MS/MS; settings: PBS (pH 7.4), pH 7.4, aqueous buffer, kinetic from dmso stock, Solubility (μM) Mean, Table 6-C, test concentration 100 μM (1% of DMSO), shaken (1000 rpm) 1 h at room temperature, n = 2
measurement name: solubility at 1 h

For orientation, consider the following solved cases.
{"columns": ["molecule", "solubility at 1 h"],
 "data": [
  ["CC(=O)N[C@]1(C)CC[C@]2(C)CC[C@]3(C)C4=CC=C5C(=CC(=O)C(O)=C5C)[C@]4(C)CC[C@@]3(C)[C@@H]2C1", "5.05 µM"],
  ["CC(=O)N[C@]1(C)CC[C@]2(C)CC[C@]3(C)C4=CC(SC(=O)c5ccccc5)c5c(cc(OC(C)=O)c(OC(C)=O)c5C)[C@]4(C)CC[C@@]3(C)[C@@H]2C1 (stereo partly drawn)", "1.74 µM"]
]}

From here, focus on the item given below.
## Input So what's the measured solubility at 1 h for this one? CC(=O)N1CCN(c2ccc(OCC3COC(Cn4ccnc4)(c4ccc(Cl)cc4Cl)O3)cc2)CC1 (stereo not drawn)
## Output 35.2 µM

====

experiment: physchem; conditions: pH 7.4, aqueous buffer, kinetic from dmso stock, Solubility (μM), Table 6-D; PBS (pH 7.4)
Outcome label depends on solubility relative to 0.6 µM: at/above gives label 1, below gives label 0.

## Input Does solubility meet or surpass 0.6 µM for `CC1=C(O)C(=O)C=C2C1=CC=C1[C@@]2(C)CC[C@@]2(C)[C@@H]3C[C@](C)(C(N)=O)CC[C@]3(C)CC[C@]12C` ?
## Output label 1

## Input Does solubility meet or surpass 0.6 µM for `CC1=C(O)C(=O)C=C2C1=CC=C1[C@@]2(C)CC[C@@]2(C)[C@@H]3C[C@](C)(CO)CC[C@]3(C)CC[C@]12C` ?
## Output label 1

## Input Does solubility meet or surpass 0.6 µM for `CC1=C(O)C(=O)C=C2C1=CC=C1[C@@]2(C)CC[C@@]2(C)[C@@H]3C[C@](C)(C(=O)N(C)C)CC[C@]3(C)CC[C@]12C` ?
## Output label 0

## Input Does solubility meet or surpass 0.6 µM for `CC1=C(O)C(=O)C=C2C1=CC=C1[C@@]2(C)CC[C@@]2(C)[C@@H]3C[C@](C)(C(=O)NC(CO)CO)CC[C@]3(C)CC[C@]12C` ?
## Output label 1

## Input Does solubility meet or surpass 0.6 µM for `CC1=C(O)C(=O)C=C2C1=CC=C1[C@@]2(C)CC[C@@]2(C)[C@@H]3C[C@](C)(C(=O)N4CC(O)C4)CC[C@]3(C)CC[C@]12C` ?
## Output label 0

## Input Does solubility meet or surpass 0.6 µM for `CC1=C(O)C(=O)C=C2C1=CC=C1[C@@]2(C)CC[C@@]2(C)[C@@H]3C[C@](C)(C(=O)O)CC[C@]3(C)CC[C@]12C` ?
## Output label 1

====

test system: C57BL/6 Diet Induced Obese (DIO) mice; assay: Oral (P.O.) administration study in DIO mice: in vivo activity, body weights; set-up: species or system mouse; settings: Mus musculus, po, 48 h; Day 2, DSNG phase, 2 mg/kg, male; difference of group mean; read-out: Body weight, %-Diff
List of change in vivo at 2 mg/kg values.
Answer with a number only, understood to be in %.

For orientation, consider the following solved cases.
{"columns": ["test smiles", "measurement name", "measured value"],
 "data": [
  ["CC(=O)N(C)C[C@]1(C)CC[C@]2(C)CC[C@]3(C)C4=CC=C5C(=CC(=O)C(O)=C5C)[C@]4(C)CC[C@@]3(C)[C@@H]2C1", "change in vivo at 2 mg/kg", 0],
  ["CCOC1=C(C)C2=CC=C3[C@@](C)(CC[C@@]4(C)[C@@H]5C[C@](C)(C(N)=O)CC[C@]5(C)CC[C@]34C)C2=CC1=O", "change in vivo at 2 mg/kg", -1],
  ["CC1=C(O)C(=O)C=C2C1=CC=C1[C@@]2(C)CC[C@@]2(C)[C@@H]3C[C@](C)(N(C)C)CC[C@]3(C)CC[C@]12C", "change in vivo at 2 mg/kg", 0],
  ["CC1=C(O)C(=O)C=C2C1=CC=C1[C@@]2(C)CC[C@@]2(C)[C@@H]3C[C@](C)(CN(C)C)CC[C@]3(C)CC[C@]12C", "change in vivo at 2 mg/kg", -1]
]}

## Input So what's the measured change in vivo at 2 mg/kg for this one? `CC(=O)N[C@]1(C)CC[C@]2(C)CC[C@]3(C)C4=CC=C5C(=CC(=O)C(O)=C5C)[C@]4(C)CC[C@@]3(C)[C@@H]2C1`
## Output -1

## Input So what's the measured change in vivo at 2 mg/kg for this one? `CC1=C(O)C(=O)C=C2C1=CC=C1[C@@]2(C)CC[C@@]2(C)[C@@H]3C[C@](C)(N)CC[C@]3(C)CC[C@]12C`
## Output -1
